Numbers sourced from ChEMBL document CHEMBL3507680.

assay: Human HepG2 cell viability assay in 384 well format; format: toxicity, cell-based; parameters: dose 125 nL, time 70.5 hour; concentration not given beside the values; details: HepG2 cells, read-out: Inhibition
reported_endpoint: cytotoxicity at 70.5 h (%)
Write the number in % without appending the unit.

IN: Looking for the measured cytotoxicity at 70.5 h of O=C(Cn1cc(C2CC2)nn1)N(Cc1ccco1)Cc1cccs1 , can you help?
OUT: -2.55

----------
Examples of compounds with documented cytotoxicity at 70.5 h follow.
experiment: Human HepG2 cell viability assay in 384 well format; assay type: toxicity, cell-based; parameters: dose 125 nL, time 70.5 hour; concentration not given beside the values; settings: HepG2 cells, read-out: Inhibition
Give your result in % as a bare value.

The cases that follow already have their cytotoxicity at 70.5 h on record.
[
  {
    "compound": "CC(C)N1CCOCC2(CCCN(C(=O)c3cn(C)cn3)C2)C1 (stereo not given)",
    "units_label": "%",
    "cytotoxicity at 70.5 h": 0.0869
  },
  {
    "compound": "O=C(CCn1cccn1)N1CCC(C2CCN(c3ncccn3)CC2)C1 (stereo not given)",
    "units_label": "%",
    "cytotoxicity at 70.5 h": -6.6
  },
  {
    "compound": "C1CC(NCC2CC2)CN(Cc2noc(C3CC3)n2)C1 (stereo not given)",
    "units_label": "%",
    "cytotoxicity at 70.5 h": -15.4
  },
  {
    "compound": "Cc1n[nH]c(C)c1CCN(C)C(=O)C(c1cccnc1)N1CCOCC1 (stereo not given)",
    "units_label": "%",
    "cytotoxicity at 70.5 h": -4.73
  },
  {
    "compound": "CCc1nsc(N2CCN(CC(=O)NCc3cccnc3)CC2)n1",
    "units_label": "%",
    "cytotoxicity at 70.5 h": -5.18
  }
]

IN: I have this compound here, CCN(Cc1ccccc1)C(=O)CN1CCOC(Cn2cncn2)C1 (stereo not given) , and I need its recorded cytotoxicity at 70.5 h.
OUT: 5.38

IN: For CCn1ncc(C(=O)NCCc2nc(-c3cccnc3)n[nH]2)c1C , what is its reported cytotoxicity at 70.5 h?
OUT: -3.1

IN: # cytotoxicity at 70.5 h lookup, item CCCNC(=O)c1cc(OC)c(OC)cc1N(C)S(C)(=O)=O
OUT: -8.53

IN: Requested field: cytotoxicity at 70.5 h. Item: CCc1nn(C)c2[nH]nc(NC(=O)c3ccccc3COC)c12
OUT: -101

IN: Requested field: cytotoxicity at 70.5 h. Item: Cc1ccsc1C(=O)N1CCc2ncc(CN3CCCC3)n2CC1
OUT: -4.02

IN: Data request, read-out cytotoxicity at 70.5 h, for COCCCNC(=O)Cc1cc(-c2ccc3c(c2)OCO3)on1
OUT: 13.4

IN: Fill in: cytotoxicity at 70.5 h of O=C(Cn1c(=O)oc2ccccc21)NCC1(O)CCc2ccccc21 (stereo not given) is ___
OUT: -6.07

IN: Any idea what cytotoxicity at 70.5 h was measured for CCOC(=O)C1CCN(Cc2c(O)ccc3oc4c(c23)CCCC4)CC1 ?
OUT: 11.2

IN: Recorded cytotoxicity at 70.5 h of COCC(=O)NCc1cc(=O)n2c(n1)CN(Cc1ccoc1)CCC2 , please.
OUT: 1.73

IN: Returns the measured cytotoxicity at 70.5 h for the input compound. Input: CN(CC1(O)CCCN(c2ccccn2)C1)C(=O)Cc1ccsc1 (stereo not given)
OUT: -9.68

IN: What measured cytotoxicity at 70.5 h goes with CN(Cc1ccc(C#N)cc1)C(=O)c1ccnc(OC2CCC2)c1 ?
OUT: 16.3
